Data provenance is PubChem BioAssay (NCI).

# METHOD: NCI Yeast Anticancer Drug Screen. Data for the mec2-1 strain (AID 157)
# RUN PARAMETERS: S. cerevisiae mec2-1 strain, at 50.0 µM, stronger effect = higher value
The panel holds about 79,000 compounds, 15% with a hit somewhere; the sample as a whole holds those more often.
OBSERVABLE: growth inhibition (%)

MOLECULE	U	VALUE MEASURED
CCCC(=O)NCCNC(=O)CCC	%	7.75
CN(C)CCCNc1c(C#N)[n+]([O-])c2cc(Cl)ccc2[n+]1[O-]	%	43.5
Cc1cc(C(=O)O)c(C)cc1SSc1cc(C)c(C(=O)O)cc1C	%	9.25
COc1ccc(CCC2(C)OCCC(C)O2)cc1 (configuration not stated)	%	-6.35
CCOC(=O)c1ccc(NC(=O)O/N=C(/Cl)CC)cc1	%	78.5
CCC(C)SC1SCC2C(=O)N(C)C3(CC3C)C(=O)OCC(NC(=O)c3nc4ccccc4cc3O)C(=O)NC(C)C(=O)N(C)C1C(=O)N(C)C1(CC1C)C(=O)OCC(NC(=O)c1nc3ccccc3cc1O)C(=O)NC(C)C(=O)N2C (configuration not stated)	%	91.9
O=C1CSc2ccccc2-n2cccc21	%	3.35

---

# METHOD: NCI Yeast Anticancer Drug Screen. Data for the mec2-1 strain (AID 157)
# RUN PARAMETERS: S. cerevisiae mec2-1 strain, at 50.0 µM, stronger effect = higher value
This is part of a sample that, as a whole, favours compounds with a hit. Of some 79,000 tested, about 15% had one in any assay.

MOLECULE	growth inhibition [%]
O=C1C(N2CCOCC2)=C(Cl)C(=O)c2ncccc21	83.8
c1ccc2c(c1)nc1cc(NC3CCCCC3)c(=NC3CCCCC3)cc-1n2C1CCCCC1	37.6
C(/C=C/CC=Nc1ccccc1)=Nc1ccccc1	30.6
Cc1cc(C)c(O)c(Cc2cc(Cl)cc(Cc3cc(C)cc(C)c3O)c2O)c1	92.5
CC(C)(C)c1ccc(-n2c3nc(=O)n(-c4ccccc4C(F)(F)F)c(=O)c-3cc3ccccc32)cc1	50
CNc1cc(SC)nc(N)n1	94.3
C/C(=N\O)c1ccc2c3c(ccc([N+](=O)[O-])c13)CC2	29.2
O=C1CC(c2ccccc2)c2c(ccc3ccccc23)O1 (stereo unspecified)	62.2
S=C1NC2=C(COC/C2=C\c2ccccc2Cl)C(c2ccccc2Cl)N1 (stereo unspecified)	81.5
Cc1cc(N2C(=O)CCSC2=S)c([N+](=O)[O-])cc1C	99.6
O=C(Nc1ccc(Cl)cc1Cl)OC(Cn1cncn1)c1ccc(Cl)cc1Cl (stereo unspecified)	91.4
CCc1cc(-c2ccco2)c(C#N)c(=S)n1C1OC(COC(C)=O)C(OC(C)=O)C(OC(C)=O)C1OC(C)=O (stereo unspecified)	8.2
CC(C)CC(NC(=O)SCc1ccccc1)C(=O)O (stereo unspecified)	1.6
COc1ccc2c(c1)OC(OC)(c1ccccc1)C(O)(OC)C2=O (stereo unspecified)	31.8
c1ccc2c(c1)CCc1[nH]c3c(c1-2)-c1ccccc1CC3	91.2
c1cc2c3c(c1)[I+]c1cccc(c1-3)[I+]2	27.1
COC1OC(COC(=O)c2ccccc2)CC1F (stereo unspecified)	94.8
O=C(Nc1cc(Cl)cc(Cl)c1)C(F)(F)F	87.5
CN(C(=O)c1ccccc1)C1(COC(=O)c2ccccc2)CCCCC1	-5.95
COC(=O)C(=O)CC(=O)c1cccc(Cl)c1	77
CNc1ccc2c(c1)Cc1ccccc1-2	91.8
CCn1c(O)c(C=Nc2ccccc2)s/c1=N/Nc1nc(-c2ccc(O)c(O)c2)cs1	48.4
c1cnc2c(Oc3nc(Oc4cccc5cccnc45)nc(Oc4cccc5cccnc45)n3)cccc2c1	89.9
Cc1ccc(C)c(NC(=O)/C(=N\NC(N)=S)C(C#N)c2ccccc2)c1 (stereo unspecified)	12.8
COc1ccc2nc3cc(Cl)ccc3c(Nc3nccs3)c2c1	70
Nc1ccc(S(=O)(=O)Nc2ccccc2)cc1	-9.35

---

# METHOD: NCI Yeast Anticancer Drug Screen. Data for the mlh1 rad18 strain (AID 175)
# RUN PARAMETERS: S. cerevisiae mlh1 rad18 strain growth inhibition; at 50.0 µM (retest, dose inferred, filed as 5.0); stronger effect = higher value
This is part of a sample that, as a whole, favours compounds with a hit. Of some 79,000 tested, about 15% had one in any assay. Calls of active or inactive are those of the source. No stated cut-off is given here; in the data, active means growth inhibition above about 70%; inactive means the rest.
Consider the following compounds and their measured growth inhibition readings.

COMPOUND	growth inhibition
OCc1ccc2c(c1)CC1(C2)Cc2cc3c(cc2C1O)CCC3 (stereo not drawn)	57% (inactive)
O=c1cc(-c2ccccc2)oc(-c2ccccc2)c1	-103% (inactive)
CCc1cccc(C(C)(C)C)c1NC(=S)/N=C/C(C(=O)c1ccccc1)=C(\O)c1ccccc1	65% (inactive)

---

# METHOD: NCI Yeast Anticancer Drug Screen. Data for the bub3 strain (AID 167)
# RUN PARAMETERS: S. cerevisiae bub3 mutant strain, at 50.0 µM, stronger effect = higher value
This is part of a sample that, as a whole, favours compounds with a hit. Of some 79,000 tested, about 15% had one in any assay.

COMPOUND	U	growth inhibition
Nc1nc(-c2ccccn2)cc2c(Cl)cccc12	%	17.6
Clc1ccccc1CCc1cc(-c2ccccc2)n[nH]1	%	93.2
O=C1c2sccc2-c2cccc3cccc1c23 (tested in a mixture with another compound)	%	83.2
CSc1nc(SC)c2cn(Cc3ccccc3)nc2n1	%	42.8
NNC(=S)Nc1ccccc1	%	2.2
O=C(O)Cc1ccc2c3c(cccc13)CC2	%	92.2
COc1cccc(/C=N/N(C)C)c1O	%	1.4
COC(=O)C1(Cc2ccc3c(c2)CCC3)Cc2ccccc2C1O (stereo not drawn)	%	89.6
CCOC(=O)C(=NNc1ccccc1)C(=O)OCC	%	46.9
COC(=O)C(=O)CC(=O)c1cccc(Cl)c1	%	82.7
O=c1oc(-c2cccc(C(Cl)Cl)c2)ns1	%	97.7
CS(=O)(=O)C(c1nc2nnc(NC(=O)Nc3ccc(Cl)cc3)n2[nH]c1=O)c1nc2nnc(NC(=O)Nc3ccc(Cl)cc3)n2[nH]c1=O	%	71.3
Cc1ccc(SC2C(=O)C3(C)CCC2C3(C)C)cc1 (stereo not drawn)	%	37.5
Cc1cc(N=NC(N)=S)c2ccccc2c1O	%	37.2
Cc1c(N)nc(C2CC(=O)N2CC(N)C(N)=O)nc1C(=O)NC(C(=O)NC(C)C(O)C(C)C(=O)NC(C(=O)NCCc1nc(-c2nc(C(=O)NCCNCC(C)O)cs2)cs1)C(C)O)C(OC1OC(CO)C(O)C(O)C1OC1OC(CO)C(O)C(OC(N)=O)C1O)c1cnc[nH]1 (stereo not drawn)	%	93.8
CC1=C(C)CC2C(=O)C(C(O)CC(C)C)=CC(=O)C2C1 (stereo not drawn)	%	98.2
COc1ccc(NC(=O)CSC(N)=O)cc1	%	53
COc1ccc2ccc(OC)c(C=O)c2c1	%	-25.6
CCCCCCCCCCCCCCSC(=NCC)NCC	%	99.3
CCN1C(Cl)=NS(=O)(=O)c2ccccc21	%	-0.05
CCC(=O)C(=O)CC1CC(c2ccco2)=Nc2ccccc2S1 (stereo not drawn)	%	6.35
OC1CCCCC1Cc1ccc(Cl)cc1 (stereo not drawn)	%	98.8
Cc1ccc(NNC2=NC(=S)NC(=O)C2)cc1	%	97.8
CCOC(=O)c1nnc2cc(-c3ccccc3)nn2c1-c1ccccc1	%	65.9
Cc1ccnc(NS(=O)(=O)c2ccc(N=Cc3c4ccccc4nc4cc(Cl)ccc34)cc2)n1	%	58.1
CN(C)c1ccc(C(O)(Cc2cccnc2)c2ccc(N(C)C)cc2)cc1	%	72
Nc1nc(-c2ccc(Cl)cc2)cs1	%	97.8
Nc1ccc(Cl)c2ccccc12	%	57.9
C=C(Cl)C(=NC(C)(C)C)Nc1ccccc1Cl	%	53.2
CC(C)C1(Cl)CCC2C3(C)CCCC(C)(C(=O)O)C3CC(Cl)C2(Cl)C1Cl (stereo not drawn)	%	72.5
CCOC(=O)C1(Br)CCN(S(=O)(=O)c2ccc(C)cc2)c2ccccc2C1=O (stereo not drawn)	%	97.5
COC(=O)/C(=C/C=C(c1ccccc1)c1ccccc1)N(C(C)=O)C(C)=O	%	99.7
C=CCOc1ccc(/C=N/NC(N)=S)cc1	%	88.1

---

# METHOD: NCI Yeast Anticancer Drug Screen. Data for the mlh1 rad18 strain (AID 175)
# RUN PARAMETERS: S. cerevisiae mlh1 rad18 strain growth inhibition; at 50.0 µM (retest, dose inferred, filed as 5.0)
The panel holds about 79,000 compounds, 15% with a hit somewhere; the sample as a whole holds those more often. The source made the active and inactive calls. No stated cut-off is given here; in the data, active means growth inhibition above about 70%; inactive means the rest.
Possible outcomes: active, inactive

MOLECULE	ASSIGNED CLASS
N=Nc1c(OC(=O)Nc2ccccc2)[nH]c2ccccc12	active
CCN(CC)C(=S)N/N=C(/c1ccccc1)c1ccccn1	active
CCOC(=O)c1cnccc1CC1(C#N)c2ccccc2C=CN1C(=O)c1ccccc1 (stereo not drawn)	inactive
CCCCCN=C(C)C(C)=NCCCCC	active
O=[N+]([O-])c1c(C=Nc2ccccc2)oc(-c2c(O)ccc3ccccc23)c1-c1c(O)ccc2ccccc12	inactive
O=[N+]([O-])c1cc2ccc(O)cc2c2ccccc12	active
CCc1cccc(C)c1NC(=O)C(=O)C(C#N)c1ccc(C)cc1 (stereo not drawn)	inactive
OC(CBr)C[n+]1cccc2cc(Cl)ccc21 (stereo not drawn)	inactive
CCCN(CCC)C(=O)c1cccc2ccccc12	inactive
CCCCCOC(=O)C1C(=O)CC(c2ccccc2)C1c1ccccc1 (stereo not drawn)	active
CN(C)c1ccc(C(c2cc3c(cc2O)OCO3)N2CCCC2)cc1 (stereo not drawn)	active
CCOCCOC(=O)c1cc([N+](=O)[O-])cc([N+](=O)[O-])c1	active
CCOC(=O)C1CN(CCCCCCN2CC(C(=O)OCC)C(=O)C2=O)C(=O)C1=O (stereo not drawn)	inactive
